- target-system: human GHS-R 1a (Homo sapiens)
- measurement-notes: GHS-R 1a receptor-ligand binding assay (membrane preparations from transfected LLC PK-1 cells)
- assay-setup: displacement of 125I-His9-ghrelin; plasma membranes of LLC PK-1 cells transiently transfected with human GHS-R 1a; mean of at least two independent experiments in triplicates
- Protocol: II) GHS-R 1a Receptor-Ligand Binding Assay (Membrane Preparations from Transfected LLC PK-1 Cells) The GHS-R 1a receptor binding/affinity studies were performed according to Guerlavais et al. (J. Med. Chem. 2003, 46: 1191-1203). […]
Quick reference for log10 IC50 among some molecules
parameter-measured: log10 IC50 (log10 of the value in nM)

molecule | quantitative-readout
NC1(C(=O)N[C@H](Cc2c[nH]c3ccccc23)c2nnc(CCc3ccccc3)n2Cc2cccc3ccccc23)CCNCC1 [Compound 49] | 1.65
O=C(N[C@H](Cc1c[nH]c2ccccc12)c1nnc(Cc2ccccc2)n1Cc1ccc(Cl)c(Cl)c1)c1ccccn1 [Compound 36] | 1.85
O=C(N[C@H](Cc1c[nH]c2ccccc12)c1nnc(CCc2ccccc2)n1Cc1cccc2ccccc12)c1ccccn1 [Compound 16] | 2.10
O=C(N[C@H](Cc1c[nH]c2ccccc12)c1nnc(CCc2ccccc2)n1CCc1ccccc1)c1cnccn1 [Compound 66] | 2.92
COc1cccc(Cn2c(CCCc3ccccc3)nnc2[C@@H](Cc2c[nH]c3ccccc23)NC(=O)C(C)(C)N)c1 [Compound 1] | 2.58
O=C(N[C@H](Cc1c[nH]c2ccccc12)c1nnc(CCCc2c[nH]c3ccccc23)n1Cc1ccccc1)C1CCNCC1 [Compound 22] | 1.60
O=C(N[C@H](Cc1c[nH]c2ccccc12)c1nnc(CCc2ccccc2)n1CCc1ccccc1)C1CCNCC1 [Compound 71] | 1.96
O=C(N[C@H](Cc1c[nH]c2ccccc12)c1nnc(CCCc2c[nH]c3ccccc23)n1Cc1ccccc1)c1ccccn1 [Compound 21] | 1.90

###

- target-system: human GHS-R 1a (Homo sapiens, UniProt Q92847)
- Sequence (Q92847 whole entry): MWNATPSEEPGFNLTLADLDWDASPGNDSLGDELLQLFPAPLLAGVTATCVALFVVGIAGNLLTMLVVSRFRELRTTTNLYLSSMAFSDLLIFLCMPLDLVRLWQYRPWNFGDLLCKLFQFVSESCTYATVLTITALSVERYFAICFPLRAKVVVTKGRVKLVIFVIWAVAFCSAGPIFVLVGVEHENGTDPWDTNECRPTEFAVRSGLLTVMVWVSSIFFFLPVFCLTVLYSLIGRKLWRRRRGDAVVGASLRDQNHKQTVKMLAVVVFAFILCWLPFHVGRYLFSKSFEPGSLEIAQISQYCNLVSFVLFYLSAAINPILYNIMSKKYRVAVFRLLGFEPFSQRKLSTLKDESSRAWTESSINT
- measurement-notes: In vitro intracellular calcium release assay using human GHS-R 1a transfected CHO cells
- assay-setup: agonists, dose-response curve of intracellular calcium release
pEC50: −log10 of the molar value.
Quick reference for pEC50 among some molecules

molecule | pEC50
COc1ccc(Cn2c(CCc3ccccc3)nnc2[C@@H](Cc2c[nH]c3ccccc23)NC(=O)C2(N)CCNCC2)c(OC)c1 [Compound 10] | 8.70
COc1ccc(Cn2c(CCc3ccccc3)nnc2[C@@H](Cc2c[nH]c3ccccc23)NC(=O)[C@H]2CNCCN2)cc1 [Compound 2] | 7.77
COc1ccc(Cn2c(CCc3ccccc3)nnc2[C@@H](Cc2c[nH]c3ccccc23)NC(=O)C2(N)CCNCC2)cc1 [Compound 4] | 8.39
COc1ccc(Cn2c(CCc3c[nH]c4ccccc34)nnc2[C@@H](Cc2c[nH]c3ccccc23)NC(=O)c2cccc(CN)c2)cc1 [Compound 13] | 8.60
COc1ccc(Cn2c(CCc3c[nH]c4ccccc34)nnc2[C@@H](Cc2c[nH]c3ccccc23)NC(=O)C2(N)CCNCC2)cc1 [Compound 47] | 7.42
O=C(N[C@H](Cc1c[nH]c2ccccc12)c1nnc(CCc2c[nH]c3ccccc23)n1Cc1cccc2ccccc12)C1CCOCC1 [Compound 20] | 9.22

###

- target-system: human GHS-R 1a (Homo sapiens, UniProt Q92847)
- measurement-notes: GHS-R 1a receptor-ligand binding assay (membrane preparations from transfected LLC PK-1 cells)
- assay-setup: displacement of 125I-His9-ghrelin; plasma membranes of LLC PK-1 cells transiently transfected with human GHS-R 1a; mean of at least two independent experiments in triplicates
- Procedure: II) GHS-R 1a Receptor-Ligand Binding Assay (Membrane Preparations from Transfected LLC PK-1 Cells) The GHS-R 1a receptor binding/affinity studies were performed according to Guerlavais et al. (J. Med. Chem. 2003, 46: 1191-1203). […]

test-smiles | units | IC50
O=C(N[C@H](Cc1c[nH]c2ccccc12)c1nnc(CCCc2c[nH]c3ccccc23)n1Cc1cccc2ccccc12)c1ccccn1 | nM | 29
COc1ccc(Cn2c(CCc3c[nH]c4ccccc34)nnc2[C@@H](Cc2c[nH]c3ccccc23)NC(=O)C2(N)CCNCC2)cc1 | nM | 150
O=C(N[C@H](Cc1c[nH]c2ccccc12)c1nnc(CCc2c[nH]c3ccccc23)n1Cc1cccc2ccccc12)C1CCNCC1 | nM | 4
COc1ccc(Cn2c(CCc3ccccc3)nnc2[C@@H](Cc2c[nH]c3ccccc23)NC(=O)c2ccccc2)c(OC)c1 | nM | 11.8
CC(C)(N)C(=O)N[C@H](Cc1c[nH]c2ccccc12)c1nnc(CCCc2c[nH]c3ccccc23)n1Cc1ccccc1 | nM | 500
COc1ccc(Cn2c(CCc3cc4ccccc4[nH]3)nnc2[C@@H](Cc2c[nH]c3ccccc23)NC(=O)C2CCOCC2)c(OC)c1 | nM | 12
